Molecular target: Human immunodeficiency virus type 1 reverse transcriptase (Human immunodeficiency virus 1, UniProt Q72547)
Assay: Ability to inhibit HIV-1 Reverse Transcriptase (RT) using an rC-dG template/primer
pIC50 values for the molecules below.
As a rule, pIC50 stands for the negative log10 of the concentration, concentration in M.

Query: Give the measured pIC50 of `O=C1Nc2ccc(Cl)cc2[C@@](C#Cc2ccccn2)(C2CC2)N1` .
Result: 7.92

Query: Then what about the molecule O=C1Nc2ccc(Cl)cc2C(C#Cc2cnccn2)(C2CC2)N1 (stereo unspecified) ?
Result: 6.57

Query: Then what about the molecule O=C1Nc2ccc(Cl)cc2C(C#Cc2ccncc2)(C2CC2)N1 (stereo unspecified) ?
Result: 6.35

Query: Then what about the molecule O=C1Nc2ccc(Cl)cc2C(C#Cc2ccccc2[N+](=O)[O-])(C2CC2)N1 (stereo unspecified) ?
Result: 7.89

Query: Then what about the molecule O=C1Nc2ccc(Cl)cc2C(C#Cc2ccccc2)(C2CC2)N1 (stereo unspecified) ?
Result: 7.75

Query: Then what about the molecule N#Cc1ccccc1C#CC1(C2CC2)NC(=O)Nc2ccc(Cl)cc21 (stereo unspecified) ?
Result: 7.97

====

Test system: MT4
Assay: Compound was evaluated for the anti-viral activity against cultured MT-4 cells
Type: functional, Homo sapiens
assayMetric: ClC95 (nM)
Report as a plain number; the unit nM is understood.

Field: example entries. Status: answers known.
# molecule, ClC95 (nM)
measured = [
    ("N#Cc1ccccc1C#CC1(C2CC2)NC(=O)Nc2ccc(Cl)cc21 (stereo not given)", 12),
    ("O=C1Nc2ccc(Cl)cc2C(C#Cc2nccs2)(C2CC2)N1 (stereo not given)", 12),
    ("Cc1ccnc2c1NC(=O)c1cccnc1N2C1CC1", 100),
    ("CCc1cc(NCc2nc3c(Cl)ccc(Cl)c3o2)c(O)nc1C", 50),
]

// next entry
Query: Give the measured ClC95 of `CC(C)=CCN1Cc2cccc3nc(S)n(c23)C[C@H]1C` .
Result: 200

====

Target: Human immunodeficiency virus type 1 reverse transcriptase (Human immunodeficiency virus 1, UniProt Q72547)
The label is 1 (yes) for IC50 below 60 nM and 0 (no) for IC50 equal to or exceeding 60 nM.

Please review the entries below; each comes with its answer.
# molecule, classification
measured = [
    ("O=C1Nc2ccc(Cl)cc2C(C#Cc2ncccn2)(C2CC2)N1 (stereo unspecified)", "0 (no)"),
    ("O=C1Nc2ccc(Cl)cc2C(C#Cc2ccccn2)(C2CC2)N1 (stereo unspecified)", "1 (yes)"),
    ("O=C1Nc2ccc(Cl)cc2C(C#Cc2nccs2)(C2CC2)N1 (stereo unspecified)", "1 (yes)"),
]

Query: For O=C1Nc2ccc(Cl)cc2C(C#Cc2cncnc2)(C2CC2)N1 (stereo unspecified) , is the recorded IC50 below the cut-off of 60 nM?
Result: 0 (no)

Query: Then what about the molecule `O=C1Nc2ccc(Cl)cc2[C@](C#Cc2ccccn2)(C2CC2)N1` ?
Result: 0 (no)

Query: Then what about the molecule O=C1Nc2ccc(Cl)cc2C(C#Cc2cccnc2)(C2CC2)N1 (stereo unspecified) ?
Result: 0 (no)

====

Heads up, these compounds all have IC50 values measured for Human immunodeficiency virus type 1 reverse transcriptase (Human immunodeficiency virus 1).
Report as a plain number; the unit nM is understood.

# compound, u, IC50
measured = [
    ("O=C1Nc2ccc(Cl)cc2C(C#Cc2ccco2)(C2CC2)N1 (centres undefined)", "nM", 9.2),
    ("CN1C(=O)Nc2ccc(Cl)cc2C1(C#Cc1ccccn1)C1CC1 (centres undefined)", "nM", 19.6),
]

// next entry
Query: Give the measured IC50 of `CC(C)=CCN1Cc2cccc3nc(S)n(c23)C[C@H]1C` .
Result: 70
